Data origin: patent US20220378744A1

Test system: IMQ-stimulated HaCaT cells
Method Notes: Anti-inflammatory effect, IMQ-stimulated HaCaT cell model (IL-6, IL-8 ELISA)
Format: cell-based, human
Condition Set: IMQ 50 μM, 24 h, compound at 2.5 μM, vs control
Quantity Measured: production of IL-6

[
  {
    "Compound": "CCCc1cc(C(=O)c2ccc(-c3ccccc3)cc2)ccc1OCCCOc1ccc2c(cnn2CC(=O)OC)c1 [MP-153]",
    "Measurement Target": "IMQ-stimulated HaCaT cells",
    "Quantity Measured": "production of IL-6",
    "Val": "significantly inhibited"
  },
  {
    "Compound": "CCCc1cc(C(=O)c2ccc(-c3ccccc3)cc2)ccc1OCCCOc1ccc2c(cnn2CC(=O)O)c1 [MP-151]",
    "Measurement Target": "IMQ-stimulated HaCaT cells",
    "Quantity Measured": "production of IL-6",
    "Val": "significantly inhibited"
  },
  {
    "Compound": "CCCc1cc(C(=O)c2ccc(F)cc2)ccc1OCCCOc1ccc2c(cnn2CC(=O)OC)c1 [MP-152]",
    "Measurement Target": "IMQ-stimulated HaCaT cells",
    "Quantity Measured": "production of IL-6",
    "Val": "significantly inhibited"
  }
]
